These data points were gathered from patent US8143408B2.

Biological target: Nav1.7 voltage-gated sodium channel (Homo sapiens)
Construct: Gene(s) encoding the full-length protein of the voltage-gated sodium channel of interest are cloned and expressed
Sequence (Q15858 whole entry): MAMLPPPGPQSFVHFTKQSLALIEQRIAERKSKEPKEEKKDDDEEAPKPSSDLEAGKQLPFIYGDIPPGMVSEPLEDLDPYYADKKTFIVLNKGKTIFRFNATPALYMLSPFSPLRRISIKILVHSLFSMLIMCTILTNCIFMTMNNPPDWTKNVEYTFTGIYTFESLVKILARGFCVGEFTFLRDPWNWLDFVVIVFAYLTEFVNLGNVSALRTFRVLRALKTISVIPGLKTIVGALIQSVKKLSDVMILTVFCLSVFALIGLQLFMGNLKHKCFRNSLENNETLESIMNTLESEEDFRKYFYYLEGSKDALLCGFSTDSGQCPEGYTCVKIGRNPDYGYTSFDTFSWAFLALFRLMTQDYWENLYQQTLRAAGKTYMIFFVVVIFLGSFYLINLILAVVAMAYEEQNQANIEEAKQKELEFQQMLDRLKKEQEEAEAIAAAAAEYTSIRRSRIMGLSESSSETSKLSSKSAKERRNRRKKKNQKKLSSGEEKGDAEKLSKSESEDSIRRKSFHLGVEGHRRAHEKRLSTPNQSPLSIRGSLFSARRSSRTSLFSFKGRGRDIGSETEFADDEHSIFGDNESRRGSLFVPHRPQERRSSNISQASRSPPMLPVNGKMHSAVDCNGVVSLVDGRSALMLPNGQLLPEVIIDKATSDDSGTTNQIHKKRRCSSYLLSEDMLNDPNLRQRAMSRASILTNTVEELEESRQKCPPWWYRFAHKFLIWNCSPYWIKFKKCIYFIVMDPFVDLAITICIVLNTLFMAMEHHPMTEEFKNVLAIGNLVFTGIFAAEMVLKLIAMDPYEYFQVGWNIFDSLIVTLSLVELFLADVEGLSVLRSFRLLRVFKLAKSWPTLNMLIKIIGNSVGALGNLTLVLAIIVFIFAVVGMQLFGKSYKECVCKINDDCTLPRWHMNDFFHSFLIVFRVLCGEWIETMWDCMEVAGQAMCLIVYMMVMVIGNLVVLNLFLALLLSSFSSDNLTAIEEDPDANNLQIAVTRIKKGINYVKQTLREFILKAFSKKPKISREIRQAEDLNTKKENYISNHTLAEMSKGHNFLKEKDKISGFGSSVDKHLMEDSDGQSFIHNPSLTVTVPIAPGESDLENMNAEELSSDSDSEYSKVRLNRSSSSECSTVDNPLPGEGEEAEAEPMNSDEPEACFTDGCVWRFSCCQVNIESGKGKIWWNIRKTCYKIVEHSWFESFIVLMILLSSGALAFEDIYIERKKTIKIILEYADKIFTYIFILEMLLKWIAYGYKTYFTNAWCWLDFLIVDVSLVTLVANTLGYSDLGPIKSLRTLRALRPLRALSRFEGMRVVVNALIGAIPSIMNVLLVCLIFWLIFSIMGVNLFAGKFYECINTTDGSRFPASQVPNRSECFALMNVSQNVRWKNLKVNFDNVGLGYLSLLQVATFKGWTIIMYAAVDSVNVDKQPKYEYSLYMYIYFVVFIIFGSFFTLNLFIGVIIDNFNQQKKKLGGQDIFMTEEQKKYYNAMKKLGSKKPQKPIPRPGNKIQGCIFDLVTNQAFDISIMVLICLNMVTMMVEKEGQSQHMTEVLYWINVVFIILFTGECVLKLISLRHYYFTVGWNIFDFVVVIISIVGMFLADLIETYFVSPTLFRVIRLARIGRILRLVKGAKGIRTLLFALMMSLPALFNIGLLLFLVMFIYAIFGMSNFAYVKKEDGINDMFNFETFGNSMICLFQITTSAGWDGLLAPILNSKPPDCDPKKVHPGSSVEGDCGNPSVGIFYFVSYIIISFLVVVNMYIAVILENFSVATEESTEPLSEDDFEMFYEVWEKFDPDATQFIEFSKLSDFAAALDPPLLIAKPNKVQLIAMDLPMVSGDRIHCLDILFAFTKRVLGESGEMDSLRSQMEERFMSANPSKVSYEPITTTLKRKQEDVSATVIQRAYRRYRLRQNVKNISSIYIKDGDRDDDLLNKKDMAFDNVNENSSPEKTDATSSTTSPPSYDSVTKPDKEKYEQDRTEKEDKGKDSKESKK
Assay: Whole-cell voltage clamp electrophysiology assay
Conditions: cells stably expressing the voltage-gated sodium channel of interest
Criterion: IC50 strictly under 1 µM. Met: YES. Not met: NO.

molecule	study_system	discrete_label
COc1ncc(-c2cccc3c2C[C@H](NC(=O)c2ccc(OCC4CCCCO4)nc2)CO3)cn1 (some centres unmarked)	Nav1.7 voltage-gated sodium channel (Homo sapiens)	NO
CCc1ncc(-c2cccc3c2C[C@H](NC(=O)c2ccc(C(=O)NCCC(F)(F)F)nc2)CO3)cn1	Nav1.7 voltage-gated sodium channel (Homo sapiens)	YES
COc1cnc(C(=O)N[C@@H]2COc3cccc(-c4cnc(OC)c(F)c4)c3C2)cn1	Nav1.7 voltage-gated sodium channel (Homo sapiens)	NO
O=C(N[C@@H]1COc2cccc(-c3ccncc3)c2C1)c1ccc(C(=O)NC2CCOCC2)nc1	Nav1.7 voltage-gated sodium channel (Homo sapiens)	NO
COCCOc1ccc(C(=O)N[C@@H]2COc3cccc(-c4ccnc(OC)c4)c3C2)cn1	Nav1.7 voltage-gated sodium channel (Homo sapiens)	YES
